All values here come from paper PMC5889910.

# TARGET SYSTEM: human serum albumin (HSA) (Homo sapiens, UniProt P02768)
# Construct: I (residues 1–195), II (196–383), and III (384–585); purchased Sigma
# Sequence (P02768 25-609): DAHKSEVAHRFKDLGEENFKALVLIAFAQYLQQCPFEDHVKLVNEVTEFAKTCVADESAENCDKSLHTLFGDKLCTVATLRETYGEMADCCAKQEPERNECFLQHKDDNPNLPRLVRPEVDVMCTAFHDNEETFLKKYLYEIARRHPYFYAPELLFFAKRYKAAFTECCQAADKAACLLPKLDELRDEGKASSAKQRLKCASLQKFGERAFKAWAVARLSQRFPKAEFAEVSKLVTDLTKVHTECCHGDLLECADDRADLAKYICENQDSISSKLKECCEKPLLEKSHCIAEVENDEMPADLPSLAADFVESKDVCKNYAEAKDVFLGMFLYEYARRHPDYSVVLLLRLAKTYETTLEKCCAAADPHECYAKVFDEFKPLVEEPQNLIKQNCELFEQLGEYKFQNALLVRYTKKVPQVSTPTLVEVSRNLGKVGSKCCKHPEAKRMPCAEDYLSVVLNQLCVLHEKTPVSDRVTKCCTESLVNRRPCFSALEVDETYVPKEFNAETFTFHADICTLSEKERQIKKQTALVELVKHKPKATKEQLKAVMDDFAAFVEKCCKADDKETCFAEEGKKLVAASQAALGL
# ASSAY REMARKS: Fluorescence quenching titration of HSA (Stern–Volmer analysis)
# Assay type: binding
# ASSAY CONDITIONS: modified Stern–Volmer equation; HSA 5 µM, pH 7.4, 25°C
OUTCOME MEASURE: K, binding constant

Solved entries:
{"COMPOUND": "CC#N.F[P-](F)(F)(F)(F)F.[Ag+].c1ccc2c(c1)[nH]c1cnccc12.c1ccc2c(c1)[nH]c1cnccc12 [Compound 3, [Ag(Hnor)2(MeCN)](PF6)]", "K, binding constant": "0.55 10^6 M^−1"}
{"COMPOUND": "F[B-](F)(F)F.[Ag+].c1ccc2c(c1)[nH]c1cnccc12.c1ccc2c(c1)[nH]c1cnccc12 [Compound 4, [Ag(Hnor)2](BF4)]", "K, binding constant": "1.14 10^6 M^−1"}
{"COMPOUND": "O=[N+]([O-])[O-].[Ag+] [AgNO3, reference compound]", "K, binding constant": "1.94 10^6 M^−1"}

Prompt: What is its K, binding constant for human serum albumin (HSA) (Homo sapiens, UniProt P02768)? Entry: O=[N+]([O-])[O-].[Ag+].c1ccc2c(c1)[nH]c1cnccc12.c1ccc2c(c1)[nH]c1cnccc12 [Compound 2, [Ag(Hnor)2](NO3)]
Response: 3.64 10^6 M^−1

Prompt: Short answer please: K, binding constant, human serum albumin (HSA) (Homo sapiens, UniProt P02768), entry [Ag+].[O-][Cl+3]([O-])([O-])[O-].c1ccc2c(c1)[nH]c1cnccc12.c1ccc2c(c1)[nH]c1cnccc12 [Compound 1, [Ag(Hnor)2](ClO4)]
Response: 3.74 10^6 M^−1

###

# TARGET SYSTEM: human serum albumin (HSA) (Homo sapiens, UniProt P02768)
# Construct: I (residues 1–195), II (196–383), and III (384–585); purchased Sigma
# ASSAY REMARKS: Fluorescence quenching titration of HSA (Stern–Volmer analysis)
# Type: binding
# ASSAY CONDITIONS: Kq = KSV/τ0, τ0 = 10^−8 s; HSA 5 µM, 25°C
OUTCOME MEASURE: K q, bimolecular quenching rate constant

Here's what some known entries look like.
{"COMPOUND": "F[B-](F)(F)F.[Ag+].c1ccc2c(c1)[nH]c1cnccc12.c1ccc2c(c1)[nH]c1cnccc12 [Compound 4, [Ag(Hnor)2](BF4)]", "K q, bimolecular quenching rate constant": "39.7 10^12 M^−1·s^−1"}
{"COMPOUND": "CC#N.F[P-](F)(F)(F)(F)F.[Ag+].c1ccc2c(c1)[nH]c1cnccc12.c1ccc2c(c1)[nH]c1cnccc12 [Compound 3, [Ag(Hnor)2(MeCN)](PF6)]", "K q, bimolecular quenching rate constant": "45.3 10^12 M^−1·s^−1"}
{"COMPOUND": "O=[N+]([O-])[O-].[Ag+].c1ccc2c(c1)[nH]c1cnccc12.c1ccc2c(c1)[nH]c1cnccc12 [Compound 2, [Ag(Hnor)2](NO3)]", "K q, bimolecular quenching rate constant": "53.4 10^12 M^−1·s^−1"}
{"COMPOUND": "[Ag+].[O-][Cl+3]([O-])([O-])[O-].c1ccc2c(c1)[nH]c1cnccc12.c1ccc2c(c1)[nH]c1cnccc12 [Compound 1, [Ag(Hnor)2](ClO4)]", "K q, bimolecular quenching rate constant": "53.7 10^12 M^−1·s^−1"}
{"COMPOUND": "O=[N+]([O-])[O-].[Ag+] [AgNO3, reference compound]", "K q, bimolecular quenching rate constant": "31.0 10^12 M^−1·s^−1"}

Kindly consider the entry below.
Prompt: # get_value(readout='K q, bimolecular quenching rate constant', item= c1ccc2c(c1)[nH]c1cnccc12 [Hnor, 9H-pyrido[3,4-b]indole, reference compound] )
Response: 29.5 10^12 M^−1·s^−1

###

# TARGET SYSTEM: human serum albumin (HSA) (Homo sapiens)
# Construct: I (residues 1–195), II (196–383), and III (384–585); purchased Sigma
# ASSAY REMARKS: Fluorescence quenching of HSA with addition of extra anions (KClO4, KNO3)
# Type: binding
# ASSAY CONDITIONS: Set B: +extra NO3− (KNO3, 1:4 ratio)
OUTCOME MEASURE: ∆G (kcal/mol)
Number in kcal/mol, nothing else.

{"MOLECULE": "O=[N+]([O-])[O-].[Ag+].c1ccc2c(c1)[nH]c1cnccc12.c1ccc2c(c1)[nH]c1cnccc12 [Compound 2, [Ag(Hnor)2](NO3)]", "∆G / kcal/mol": -13.4}
{"MOLECULE": "CC#N.F[P-](F)(F)(F)(F)F.[Ag+].c1ccc2c(c1)[nH]c1cnccc12.c1ccc2c(c1)[nH]c1cnccc12 [Compound 3, [Ag(Hnor)2(MeCN)](PF6)]", "∆G / kcal/mol": -12.19}
{"MOLECULE": "[Ag+].[O-][Cl+3]([O-])([O-])[O-].c1ccc2c(c1)[nH]c1cnccc12.c1ccc2c(c1)[nH]c1cnccc12 [Compound 1, [Ag(Hnor)2](ClO4)]", "∆G / kcal/mol": -14.4}

With those in mind, consider the next molecule.
Prompt: What value of measured ∆G is listed for F[B-](F)(F)F.[Ag+].c1ccc2c(c1)[nH]c1cnccc12.c1ccc2c(c1)[nH]c1cnccc12 [Compound 4, [Ag(Hnor)2](BF4)] ?
Response: -13.07

###

# TARGET SYSTEM: human serum albumin (HSA) (Homo sapiens, UniProt P02768)
# Construct: I (residues 1–195), II (196–383), and III (384–585); purchased Sigma
# ASSAY REMARKS: Fluorescence quenching of HSA with addition of extra anions (KClO4, KNO3)
# Assay type: binding
# ASSAY CONDITIONS: Set A: +extra ClO4− (KClO4, 1:4 ratio); HSA 5 µM
Let's look at some compounds and their measured K SV.

{"COMPOUND": "CC#N.F[P-](F)(F)(F)(F)F.[Ag+].c1ccc2c(c1)[nH]c1cnccc12.c1ccc2c(c1)[nH]c1cnccc12 [Compound 3, [Ag(Hnor)2(MeCN)](PF6)]", "VALUE": "0.84 10^7 M^−1"}
{"COMPOUND": "[Ag+].[O-][Cl+3]([O-])([O-])[O-].c1ccc2c(c1)[nH]c1cnccc12.c1ccc2c(c1)[nH]c1cnccc12 [Compound 1, [Ag(Hnor)2](ClO4)]", "VALUE": "2.21 10^7 M^−1"}
{"COMPOUND": "F[B-](F)(F)F.[Ag+].c1ccc2c(c1)[nH]c1cnccc12.c1ccc2c(c1)[nH]c1cnccc12 [Compound 4, [Ag(Hnor)2](BF4)]", "VALUE": "1.85 10^7 M^−1"}

Note: attention shifts to another entry.
Prompt: Item: O=[N+]([O-])[O-].[Ag+].c1ccc2c(c1)[nH]c1cnccc12.c1ccc2c(c1)[nH]c1cnccc12 [Compound 2, [Ag(Hnor)2](NO3)] Test system: human serum albumin (HSA) (Homo sapiens, UniProt P02768) Read-out: K SV Value: ?
Response: 1.29 10^7 M^−1

###

Reported n, number of binding sites is given for each of the following molecules.
# TARGET SYSTEM: human serum albumin (HSA) (Homo sapiens)
# Construct: I (residues 1–195), II (196–383), and III (384–585); purchased Sigma
# ASSAY REMARKS: Fluorescence quenching of HSA with addition of extra anions (KClO4, KNO3)
# Format: binding
# ASSAY CONDITIONS: Set B: +extra NO3− (KNO3, 1:4 ratio); HSA 5 µM
Respond using a number only.

Below, 3 molecules whose answers are already recorded.
{"MOLECULE": "CC#N.F[P-](F)(F)(F)(F)F.[Ag+].c1ccc2c(c1)[nH]c1cnccc12.c1ccc2c(c1)[nH]c1cnccc12 [Compound 3, [Ag(Hnor)2(MeCN)](PF6)]", "n, number of binding sites": 1.41}
{"MOLECULE": "[Ag+].[O-][Cl+3]([O-])([O-])[O-].c1ccc2c(c1)[nH]c1cnccc12.c1ccc2c(c1)[nH]c1cnccc12 [Compound 1, [Ag(Hnor)2](ClO4)]", "n, number of binding sites": 1.64}
{"MOLECULE": "O=[N+]([O-])[O-].[Ag+].c1ccc2c(c1)[nH]c1cnccc12.c1ccc2c(c1)[nH]c1cnccc12 [Compound 2, [Ag(Hnor)2](NO3)]", "n, number of binding sites": 1.53}

Moving on to another molecule below.
Prompt: Recorded n, number of binding sites of F[B-](F)(F)F.[Ag+].c1ccc2c(c1)[nH]c1cnccc12.c1ccc2c(c1)[nH]c1cnccc12 [Compound 4, [Ag(Hnor)2](BF4)] , please.
Response: 1.48

###

# TARGET SYSTEM: human serum albumin (HSA) (Homo sapiens)
# Construct: I (residues 1–195), II (196–383), and III (384–585); purchased Sigma
# ASSAY REMARKS: Far-UV circular dichroism of HSA, α-helix content
# Assay type: binding
# Design: unit of the concentration uncertain
# ASSAY CONDITIONS: compound concentration 80 (unit uncertain); HSA 20 µM; free HSA 67.03
% α-helix of HSA listing for selected compounds.
Output spec: scalar in %, unitless text.

For orientation, consider the following solved cases.
{"COMPOUND": "O=[N+]([O-])[O-].[Ag+].c1ccc2c(c1)[nH]c1cnccc12.c1ccc2c(c1)[nH]c1cnccc12 [Compound 2, [Ag(Hnor)2](NO3)]", "% α-helix of HSA (%)": 52.02}
{"COMPOUND": "[Ag+].[O-][Cl+3]([O-])([O-])[O-].c1ccc2c(c1)[nH]c1cnccc12.c1ccc2c(c1)[nH]c1cnccc12 [Compound 1, [Ag(Hnor)2](ClO4)]", "% α-helix of HSA (%)": 50.18}

Prompt: I have this compound here, F[B-](F)(F)F.[Ag+].c1ccc2c(c1)[nH]c1cnccc12.c1ccc2c(c1)[nH]c1cnccc12 [Compound 4, [Ag(Hnor)2](BF4)] , and I need its recorded % α-helix of HSA.
Response: 56.66
